- Tested on: MOLT-4
- experimentalProtocol: NCI tumour cell line growth inhibition, 48 h
The source made the active and inactive calls. Rule as the data show it: active = GI50 up to about 1.1 µM and inactive = higher.
Your answer must be one of the following: 1 = active, 0 = inactive

Example cases with answers are listed next.
CCC/N=C/c1c(O)c(O)c(C(C)C)c2cc(C)c(-c3c(C)cc4c(C(C)C)c(O)c(O)c(/C=N/CCC)c4c3O)c(O)c12: 0
COc1ccc(/C(Cl)=C(\C=O)c2ccc([N+](=O)[O-])cc2)cc1OC: 0
COc1ccc2c(c1)[C@@]13CCN4CC5=CCO[C@H]6CC(=O)N2[C@H]1[C@H]6[C@H]5C[C@H]43: 0

Consider now this further compound.
Data request: Recorded test call requested for CCc1cccc(C)c1NC(=O)CCc1nnc2s/c(=C\c3cccc4ccccc34)c(=O)n12
Data returned: 0
